Answer each item with its documented EC50.
test.system: PSGL-1(ECD)-hFc1 M119A protein (Sino Biological) (human)
Sequence (chain, as listed by the source M119A M119A): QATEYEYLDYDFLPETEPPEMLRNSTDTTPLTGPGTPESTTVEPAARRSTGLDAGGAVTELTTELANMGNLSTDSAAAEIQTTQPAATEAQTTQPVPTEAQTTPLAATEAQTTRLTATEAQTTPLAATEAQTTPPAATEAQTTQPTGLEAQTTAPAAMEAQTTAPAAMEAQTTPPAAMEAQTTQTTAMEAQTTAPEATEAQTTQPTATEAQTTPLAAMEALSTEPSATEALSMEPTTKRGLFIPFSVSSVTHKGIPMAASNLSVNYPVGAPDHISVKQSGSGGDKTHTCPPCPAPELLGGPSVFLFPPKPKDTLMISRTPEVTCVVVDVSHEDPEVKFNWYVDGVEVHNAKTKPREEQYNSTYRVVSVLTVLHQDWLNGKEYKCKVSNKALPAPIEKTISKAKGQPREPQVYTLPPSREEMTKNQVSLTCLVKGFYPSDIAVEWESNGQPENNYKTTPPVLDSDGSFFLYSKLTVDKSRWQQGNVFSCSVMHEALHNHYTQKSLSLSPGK
protocol: ELISA, plate-bound peptide or protein
// return numeric value only (unit: pM, not printed)

Enquiry: Dear colleague, I am looking for the recorded EC50 of the following binder: 19N05 (antibody, V domains shown, From mouse immunisation; only variable domains given) VH: QIQLVQSGPELKKPGETVKISCKASGYTFTTYGMSWVKQAPGKGLKWMGWINTYSGVPTFADDFKGRFAFSLETSASTAYLQINNLKNEDTATFFCARNYYGNHYFDYWGQGTTLTVSS VL: DVQITQSPSYLAASPGETISINCRASNNINKYLAWYQEKPGKTNKLLIYSGSTLQSGIPSRFSGSGSGTDFTLTISSLEPEDFAMYHCQQHNYYPLTFGAGTKLELK
Return: 510

Enquiry: Please look up its EC50: 19L04 (antibody, IgG4, V domains shown, From mouse immunisation; only variable domains given) VH: QIQLVQSGPELKKPGETVKISCKASGYTFTTYGMSWVKQAPGKGLKWMGWINTYSGVPTYADDFKGRFAFSLETSASTAYLQINNLKIEDTATYFCARHYYGSHYFDYWGQGTTLTVSS VL: DIMMTQSPSSLAMSVGQKVTLRCKSSQSLLNSSNQKNYLAWYQQKPGQSPKLLVYFASTRESGVPVRFIGSGSGTDFTLTISSMQAEDLADYFCQQHYFSPLTFGAGTKLELK
Return: 860

Enquiry: Requested read-out: EC50. Entry: 18F17 (antibody, V domains shown, Non-functional anti-PSGL-1 mAb (Verseau); only variable domains given) VH: QVTLKESGPGILQPSQTLSLTCSFSGFSLSTFGMGVGWIRQPSGKGLEWLAHIWWDDDKYYNPALKSRLTISKDTSKNQVFLKIANVDTADTATYYCAIYYDYGVGFDYWGQGTTLTVSS VL: DIVMTQAAPSVPVTPGESVSISCRSSKSLLHSNGYTFLYWFLQRPGQSPQLLIYRMSNLASGVPDRFSGSGSGTAFTLRISRVEAEDVGVYYCMQHLEYPFTFGTGTKLEIK
Return: 600
